From: the supplement of paper PMC6555819

# Lookup of reported PBM binding z-score keyed by entry
- System: FXR:RXRa (NR concentration 270 nM, RXRa partner concentration 90 nM)
- run-description: PBM binding z-score (relative to random genomic background probes); higher = stronger binding; sequences stand for … in GC…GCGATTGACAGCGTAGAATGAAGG
experimental-endpoint: PBM binding z-score

# sequence-string, test-system, observed-value
records = [
    ("CGAACTAGGTCACCAGGACGGTGAAGAGGTTGGA", "FXR:RXRa (NR concentration 270 nM, RXRa partner concentration 90 nM)", 3.75),
    ("TAGCCTAGGTCATTTGGCCAGTATAGTACGCATC", "FXR:RXRa (NR concentration 270 nM, RXRa partner concentration 90 nM)", 4.44),
    ("ATATGTAGTTTAGGGTCATTCAGAAAGTAGGGAA", "FXR:RXRa (NR concentration 270 nM, RXRa partner concentration 90 nM)", 5.21),
    ("CATACTAGGTCAAAGGTCAAAGTCGAGCCAACCA", "FXR:RXRa (NR concentration 270 nM, RXRa partner concentration 90 nM)", 8.57),
    ("TCGAGTACGTTACGGGGGCATTCAGGGATGAAGA", "FXR:RXRa (NR concentration 270 nM, RXRa partner concentration 90 nM)", 2.24),
    ("ATAAGTAGGTTAGGGTCATTCAGAAAGTAGGGAA", "FXR:RXRa (NR concentration 270 nM, RXRa partner concentration 90 nM)", 4.83),
    ("CCGAGTAGGTTACGAGGGGGCAGTCAGTGCGAAT", "FXR:RXRa (NR concentration 270 nM, RXRa partner concentration 90 nM)", 2.18),
    ("TTACCAAGGTGAAAGGTCGGTGATGCACGCCTTG", "FXR:RXRa (NR concentration 270 nM, RXRa partner concentration 90 nM)", 2.27),
    ("CTATGTAGATTAAGGGGGTCATTCAGTTTGAAAG", "FXR:RXRa (NR concentration 270 nM, RXRa partner concentration 90 nM)", 4.51),
    ("CTATGTAGGTTAAGGGGATCATTCAGTTTGAAAG", "FXR:RXRa (NR concentration 270 nM, RXRa partner concentration 90 nM)", 0.585),
    ("CATACCGGGTCAGCTAGGCCAGAGTAGGGACGGC", "FXR:RXRa (NR concentration 270 nM, RXRa partner concentration 90 nM)", 2.5),
    ("CCTACTGGGCCAAGGTCTTTGATCAGTCAAAGCA", "FXR:RXRa (NR concentration 270 nM, RXRa partner concentration 90 nM)", -0.503),
    ("ATCGAAAGGTCGACGAGGAGAGTATACACCGTTT", "FXR:RXRa (NR concentration 270 nM, RXRa partner concentration 90 nM)", 3.22),
    ("ATCTCTAGGTAAAGGTCAGTGAAAGATCGATAGA", "FXR:RXRa (NR concentration 270 nM, RXRa partner concentration 90 nM)", 3.48),
    ("TCTAGTTGGTCAAAGGTCTCACACTCGAAATGCG", "FXR:RXRa (NR concentration 270 nM, RXRa partner concentration 90 nM)", 1.27),
    ("TCTCGGAGGACACGAAGGTCAGCGCTTTCCAGAG", "FXR:RXRa (NR concentration 270 nM, RXRa partner concentration 90 nM)", 1.84),
    ("CTATGTAGGTTAATGGGGTCATTCAGTTTGAAAG", "FXR:RXRa (NR concentration 270 nM, RXRa partner concentration 90 nM)", 5.79),
    ("GCTTACGGGTGAAAGGTTATAGCATGAATAGAAT", "FXR:RXRa (NR concentration 270 nM, RXRa partner concentration 90 nM)", 2.96),
    ("GCTGCAAGGTCAACTGATGGTCAGCTAAAGCTCG", "FXR:RXRa (NR concentration 270 nM, RXRa partner concentration 90 nM)", 7.53),
    ("AATACAGGGTCGCTAGGCCAGAGTAGGTACGAAT", "FXR:RXRa (NR concentration 270 nM, RXRa partner concentration 90 nM)", 0.424),
    ("ATCGAAAGGTCGTGAAGTGAGTATACAGAAAGGC", "FXR:RXRa (NR concentration 270 nM, RXRa partner concentration 90 nM)", 4.52),
    ("CAAACTAGGTCACCGTAAGGTCAAAGTCCGCATG", "FXR:RXRa (NR concentration 270 nM, RXRa partner concentration 90 nM)", 6.58),
    ("CGAACCAGGTCACCAGGACAGTGAAGAGGTTGGA", "FXR:RXRa (NR concentration 270 nM, RXRa partner concentration 90 nM)", 5.33),
    ("CCTACTGGGCCATTCAGAGGTCATTGTTCATATG", "FXR:RXRa (NR concentration 270 nM, RXRa partner concentration 90 nM)", 2.55),
    ("GACACAGGGTCAGCTAGAGGCCAGAGTATGGAAA", "FXR:RXRa (NR concentration 270 nM, RXRa partner concentration 90 nM)", 4.61),
    ("CCGAGTAGGTTACAAGGGGGCATTCAGTGCGAAT", "FXR:RXRa (NR concentration 270 nM, RXRa partner concentration 90 nM)", 2.05),
    ("CGAACTAGGTCAAAGGACAGTGAAAGGCGACGTA", "FXR:RXRa (NR concentration 270 nM, RXRa partner concentration 90 nM)", 4.11),
    ("CATACAGGGTAAGCTAGGCCAGAGTAGGGACGGC", "FXR:RXRa (NR concentration 270 nM, RXRa partner concentration 90 nM)", 0.167),
    ("GCTTACGGGTCAAAGGTTATAGTATGAATAGAAT", "FXR:RXRa (NR concentration 270 nM, RXRa partner concentration 90 nM)", 6.98),
    ("TCGAGTAGGTTACGGGCGCATTCAGGGATGAAGA", "FXR:RXRa (NR concentration 270 nM, RXRa partner concentration 90 nM)", 0.124),
    ("TCGAGTAGGGTACGGGGGCATTCAGGGATGAAGA", "FXR:RXRa (NR concentration 270 nM, RXRa partner concentration 90 nM)", 2.34),
    ("TGAATGACGTTAAAGATCAGGGAACGTGGCGTCG", "FXR:RXRa (NR concentration 270 nM, RXRa partner concentration 90 nM)", -0.238),
    ("CCTAGTTGGTCAAGGTCTCACACGCTATAGGTAC", "FXR:RXRa (NR concentration 270 nM, RXRa partner concentration 90 nM)", 0.271),
    ("ACTCGGAGGACAAATGTCAGAGCTACGCCAGTGA", "FXR:RXRa (NR concentration 270 nM, RXRa partner concentration 90 nM)", -0.155),
    ("ATATGTAGGTGAGGGTCATTCAGAAAGTAGGGAA", "FXR:RXRa (NR concentration 270 nM, RXRa partner concentration 90 nM)", 3.06),
    ("TCGAGTAGGTTACAGGGGCATTCAGGGATGAAGA", "FXR:RXRa (NR concentration 270 nM, RXRa partner concentration 90 nM)", 0.886),
    ("CAAACTAGGTCACAGAGGTTAAAGTCCGTGCGTA", "FXR:RXRa (NR concentration 270 nM, RXRa partner concentration 90 nM)", 5.89),
    ("GCTGCTAGGTCAGGTTGGTCAACTAACGGGTACG", "FXR:RXRa (NR concentration 270 nM, RXRa partner concentration 90 nM)", 1.14),
    ("CTCCAAAGGTCGGTTGAGGTGAGTATACGGATAA", "FXR:RXRa (NR concentration 270 nM, RXRa partner concentration 90 nM)", 2.49),
    ("CCTTACAGGTCACGAGGTTATAGCACGACGAGCG", "FXR:RXRa (NR concentration 270 nM, RXRa partner concentration 90 nM)", 7.41),
    ("CGAACTAGGTCACCAGGACAGTGACGAGGTTGGA", "FXR:RXRa (NR concentration 270 nM, RXRa partner concentration 90 nM)", 4.27),
    ("CGAACTAGGTCAGAACAGGACATTGAAGGATGAT", "FXR:RXRa (NR concentration 270 nM, RXRa partner concentration 90 nM)", 1.42),
    ("CGTCCAAGGTCAATGCGAGGTCAGTGAAAGCATT", "FXR:RXRa (NR concentration 270 nM, RXRa partner concentration 90 nM)", 7.21),
    ("CAAACTAGGTCACCGGAAAGTCAAAGTCCGCATG", "FXR:RXRa (NR concentration 270 nM, RXRa partner concentration 90 nM)", 4.54),
    ("CTATGTAGGTTAAGGGGGTCATTCAATTTGAAAG", "FXR:RXRa (NR concentration 270 nM, RXRa partner concentration 90 nM)", 5.04),
    ("ATATGTATGTTAGGGTCATTCAGAAAGTAGGGAA", "FXR:RXRa (NR concentration 270 nM, RXRa partner concentration 90 nM)", 4.58),
    ("ATCGAAAGGGCGTGAGGTGAGTATACAGAAAGGC", "FXR:RXRa (NR concentration 270 nM, RXRa partner concentration 90 nM)", 0.437),
    ("ATATGTAGGTTAGGGTCACTCAGAAAGTAGGGAA", "FXR:RXRa (NR concentration 270 nM, RXRa partner concentration 90 nM)", 4.33),
    ("CCTAGTGGGCCAAAGGTCATTGATTCCAATGCTC", "FXR:RXRa (NR concentration 270 nM, RXRa partner concentration 90 nM)", 5.47),
    ("TCGAGTAGGTTACGGGGTCATTCAGGGATGAAGA", "FXR:RXRa (NR concentration 270 nM, RXRa partner concentration 90 nM)", 6.23),
    ("ATATGTAGGTTAGGGCCATTCAGAAAGTAGGGAA", "FXR:RXRa (NR concentration 270 nM, RXRa partner concentration 90 nM)", 0.671),
]
